- experimental.target: recombinant soluble homotrimeric HA of A/chicken/Vietnam/NCVD-016/08 (H5N1) (Influenza A virus A/chicken/Vietnam/NCVD-016/2008(H5N1))
- procedure.summary: HA microarray, BCC supernatant
- experimental.parameters: remark: other sources report otherwise
test.readout: Trimeric HA Binding: RLU (RLU)

binder: TCN-550 (5096_F06) (antibody, V domains shown) VH: QVQLQESGPGLVKPSETLSLTCTVSGASINSHYWSWIRQPPGKGLEWIGYVYYSGSTTYNPSLKSRVTLSVDTSKNQFSLNLSSVTAADTAFYYCARHPYDVLTGSGDWFDPWGQGTLVTVSS VL: SYVLTQAPSVSVAPGQTARITCGGNAIGSKKVHWYQHKAGQAPVLVVYDDTDRPSGIPERFSGSNSWSTATLTINRVEAGDEADYYCQVWDFTIDHVVFGGGTKLTVL
measurement.unit: RLU
reported.result: 361
--
binder: TCN-528 (5087_P17) (antibody, V domains shown) VH: QVQLVQSGSEVKKPGASVKVSCKASGYTFTNYDINWIRQAPGQGLEWMGWINPNSGTTGSAQRFQGRVTITVDTSITTVYMELSSLRSDDTAIYYCARGRELLRLQHFLTDSQSERRDCFDPWGQGTLVTVSS VL: DIQMTQSPSSLSASVGDRVTITCRANQDIGIYLNWYQQNPGKVPKLLLHGASSLQGGVPSRFSASGSGTDFTLTIHSLQPEDLATYYCQQSRRLPYTFGQGTRVELK
measurement.unit: RLU
reported.result: 38200
--
binder: TCN-535 (5246_P19) (antibody, V domains shown) VH: QVQLVQSGSEVKKPGTSVKVSCTASGSVFTNYGISWVRQAPGQGLEWMGGIIPLFGAAKYAQKFQGRVTITADESTKTVYMELSRLTSKDTAIYFCAKAPRVYEYYFDQWGQGTPVTVSS VL: EIVLTQSPGTLSLSPGERATLSCRASQSVSSSQLAWYQQKPGQAPRLIIYGASTRATGIPDRFSGSGSGTDFTLTIGRLEPEDFAVFFCQQYSTSPPTFGQGTKVDFK
measurement.unit: RLU
reported.result: 50000
--
binder: TCN-534 (5249_B02) (antibody, V domains shown) VH: QVQLVQSGAEVKKPGSSVKVSCRESGGTFNGYTITWVRQAPGQGLEWMGGIIPMMGTVNYAQKLQGRVTITTDYFTKTAYMDLNNLRSEDTAMYYCVKIRYTGQQLLWGQGTLVTVSS VL: DIQMTQSPSTLSASIGDRVTITCRASQSIASWLAWYQQKPGKAPKLLIYEAVNLESGVPSRFSGSGSGTDFTLTISSLQPDDFATYFCQHYGTISQTFGGGTKVEIK
measurement.unit: RLU
reported.result: 56600

The origin of these recorded values is patent US20150086555A1.
